target: Glycogen synthase kinase-3 beta (Homo sapiens); assay: Inhibition of N-terminal His6-tagged recombinant human GSK3beta H350L mutant expressed in baculovirus infected Sf21 cells using GSM as substrate incubated for 30 mins in presence of ATP by Kinase-Glo luminescent assay
Sequence (P49841 whole entry): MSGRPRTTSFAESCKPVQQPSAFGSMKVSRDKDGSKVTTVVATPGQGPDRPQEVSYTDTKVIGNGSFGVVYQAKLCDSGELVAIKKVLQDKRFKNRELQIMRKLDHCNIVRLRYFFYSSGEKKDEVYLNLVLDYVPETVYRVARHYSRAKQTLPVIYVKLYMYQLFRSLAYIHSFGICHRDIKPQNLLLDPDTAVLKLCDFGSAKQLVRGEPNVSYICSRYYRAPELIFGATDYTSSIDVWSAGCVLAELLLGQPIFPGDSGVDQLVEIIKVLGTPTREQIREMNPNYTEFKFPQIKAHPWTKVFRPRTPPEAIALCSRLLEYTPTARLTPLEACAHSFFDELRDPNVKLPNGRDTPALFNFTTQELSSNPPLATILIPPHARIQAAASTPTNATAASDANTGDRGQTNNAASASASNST
pIC50: −log10 of the molar value.
In this section we review reported pIC50 values for a set of compounds.

{"compound": "CNC(=O)c1sc(-c2ccnc(NC(=O)C3CC3)c2)nc1OCCOCC#Cc1ccc2c(c1)C(=O)N(C1CCC(=O)NC1=O)C2=O (configuration not stated)", "targetDesc": "Glycogen synthase kinase-3 beta (Homo sapiens)", "limitOperator": "=", "pIC50": 7.71}
{"compound": "CNC(=O)c1sc(-c2ccnc(NC(=O)C3CC3)c2)nc1OCCOCCOCCOCCOc1cccc2c1C(=O)N(C1CCC(=O)NC1=O)C2=O (configuration not stated)", "targetDesc": "Glycogen synthase kinase-3 beta (Homo sapiens)", "limitOperator": "=", "pIC50": 7.14}
{"compound": "CNC(=O)c1sc(-c2ccnc(NC(=O)C3CC3)c2)nc1OCCCCCCCCCCOc1cccc2c1C(=O)N(C1CCC(=O)NC1=O)C2=O (configuration not stated)", "targetDesc": "Glycogen synthase kinase-3 beta (Homo sapiens)", "limitOperator": "=", "pIC50": 7.15}
{"compound": "NC(=O)c1sc(-c2ccnc(NC(=O)C3CC3)c2)nc1OCCC#Cc1ccc2c(c1)C(=O)N(C1CCC(=O)NC1=O)C2=O (configuration not stated)", "targetDesc": "Glycogen synthase kinase-3 beta (Homo sapiens)", "limitOperator": "<", "pIC50": 6.00}
{"compound": "NC(=O)c1sc(-c2ccnc(NC(=O)C3CC3)c2)nc1OCCOCC#Cc1ccc2c(c1)C(=O)N(C1CCC(=O)NC1=O)C2=O (configuration not stated)", "targetDesc": "Glycogen synthase kinase-3 beta (Homo sapiens)", "limitOperator": "=", "pIC50": 7.56}
{"compound": "COc1nc(-c2ccnc(NC(=O)C3CC3)c2)sc1C(=O)NCCCNC(=O)COc1cccc2c1C(=O)N(C1CCC(=O)NC1=O)C2=O (configuration not stated)", "targetDesc": "Glycogen synthase kinase-3 beta (Homo sapiens)", "limitOperator": "=", "pIC50": 6.06}
{"compound": "CNC(=O)c1sc(-c2ccnc(NC(=O)C3CC3)c2)nc1OCCC#Cc1cccc2c1CN(C1CCC(=O)NC1=O)C2=O (configuration not stated)", "targetDesc": "Glycogen synthase kinase-3 beta (Homo sapiens)", "limitOperator": "<", "pIC50": 6.00}

* * *

biological target: Glycogen synthase kinase-3 beta (Homo sapiens); test: Inhibition of N-terminal His6-tagged recombinant human GSK3beta H350L mutant expressed in baculovirus infected Sf21 cells using GSM as substrate incubated for 30 mins in presence of ATP by Kinase-Glo luminescent assay
pIC50: −log10 of the molar value.
measuredParameter: pIC50

{"compound": "CNC(=O)c1sc(-c2ccnc(NC(=O)C3CC3)c2)nc1OCCCCCCCCOc1cccc2c1C(=O)N(C1CCC(=O)NC1=O)C2=O (stereo not drawn)", "valueObserved": 7.62}
{"compound": "COc1nc(-c2ccnc(NC(=O)C3CC3)c2)sc1C(=O)NCCCCNC(=O)COc1cccc2c1C(=O)N(C1CCC(=O)NC1=O)C2=O (stereo not drawn)", "valueObserved": 6.19}
{"compound": "CNC(=O)c1sc(-c2ccnc(NC(=O)C3CC3)c2)nc1OCCCC#Cc1ccc2c(c1)C(=O)N(C1CCC(=O)NC1=O)C2=O (stereo not drawn)", "valueObserved": 7.10}

* * *

GSK3beta protein level remaining by entry:
biological target: Protein cereblon/Glycogen synthase kinase-3 beta (Rattus norvegicus) (UniProt P18266+Q56AP7); assay: Protac activity at CRBN/GSK3beta in rat PC12 cells assessed as GSK3beta degradation by measuring GSK3beta protein level at 10 uM after 10 hrs by Western blotting analysis; type: cell-based; conditions: PC-12
Sequence (P18266 whole entry, looked up): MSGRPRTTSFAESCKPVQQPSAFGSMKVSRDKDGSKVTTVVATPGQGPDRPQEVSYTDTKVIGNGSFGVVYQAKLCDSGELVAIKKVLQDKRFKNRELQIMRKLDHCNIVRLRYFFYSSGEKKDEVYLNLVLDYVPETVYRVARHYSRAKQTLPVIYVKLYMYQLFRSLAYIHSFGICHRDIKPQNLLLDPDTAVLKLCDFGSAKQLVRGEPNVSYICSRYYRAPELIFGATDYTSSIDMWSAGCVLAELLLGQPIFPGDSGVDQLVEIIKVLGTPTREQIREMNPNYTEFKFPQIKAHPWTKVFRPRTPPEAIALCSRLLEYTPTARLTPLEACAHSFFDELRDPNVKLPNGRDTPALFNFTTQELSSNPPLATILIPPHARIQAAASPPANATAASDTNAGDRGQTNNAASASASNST
Sequence (Q56AP7 whole entry, looked up): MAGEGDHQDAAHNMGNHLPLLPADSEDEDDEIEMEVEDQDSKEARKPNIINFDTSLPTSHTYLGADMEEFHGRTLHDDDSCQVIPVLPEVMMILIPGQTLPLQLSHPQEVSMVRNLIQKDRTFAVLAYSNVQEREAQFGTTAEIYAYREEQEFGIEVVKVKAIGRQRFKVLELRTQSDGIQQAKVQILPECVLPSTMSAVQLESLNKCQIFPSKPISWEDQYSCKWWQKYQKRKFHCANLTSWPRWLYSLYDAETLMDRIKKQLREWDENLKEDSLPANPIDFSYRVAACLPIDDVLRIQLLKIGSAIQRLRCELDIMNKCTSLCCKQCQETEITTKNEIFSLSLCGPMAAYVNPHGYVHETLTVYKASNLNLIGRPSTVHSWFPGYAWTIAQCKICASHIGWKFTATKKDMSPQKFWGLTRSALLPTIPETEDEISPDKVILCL

{"compound": "CNC(=O)c1sc(-c2ccnc(NC(=O)C3CC3)c2)nc1OCCOCCOCCOCCOc1cccc2c1C(=O)N(C1CCC(=O)NC1=O)C2=O (stereo not drawn)", "GSK3beta protein level remaining / %": 71.2}
{"compound": "CNC(=O)c1sc(-c2ccnc(NC(=O)C3CC3)c2)nc1OCCOCC#Cc1cccc2c1CN(C1CCC(=O)NC1=O)C2=O (stereo not drawn)", "GSK3beta protein level remaining / %": 89.7}
{"compound": "CNC(=O)c1sc(-c2ccnc(NC(=O)C3CC3)c2)nc1OCCOCC#Cc1ccc2c(c1)C(=O)N(C1CCC(=O)NC1=O)C2=O (stereo not drawn)", "GSK3beta protein level remaining / %": 68.8}
